target: SARS-CoV-2 Main Protease (SARS-CoV-2) (UniProt P0DTD1)
The following compounds are shown together with reported log10(IC50) values.
quantity_measured: log10(IC50) (log10 of the value in µM)

{"columns": ["compound", "measured"],
 "data": [
  ["O=C(Nc1cncc2ccccc12)C1=CCCc2ccc(Cl)cc21", -1.09],
  ["c1ccc(-c2cc(Sc3nnc(-c4cccs4)o3)n3ncnc3n2)cc1", -0.82],
  ["O=C1OC(c2cccs2)=N/C1=C\\c1ccc(N2CCOCC2)s1", -0.15],
  ["O=C(Cc1ccc2[nH]c(=O)[nH]c2c1)NC1(CNC(=O)c2cnc[nH]2)CC1", 1.44],
  ["O=C(CCl)N1CCN(Cc2cccc(CNC(=O)N3CCOCC3)c2)CC1", 1.70],
  ["Cc1ccncc1NC(=O)C(C)(C)c1cccc(Cl)c1", 1.39],
  ["CN(C)c1ccc(N(Cc2cccc(Cl)c2)C(=O)Cn2nnc3ccccc32)cc1", -0.41],
  ["Cc1cc(O)c2c(c1)C1(O)CC(C2=O)C2=C1C(=O)c1c(O)cccc1C2=O (stereo not given)", 1.76],
  ["Cc1ccncc1NC(=O)Cc1cc(Cl)cc(OCc2ncn[nH]2)c1", 1.91],
  ["COC(=O)c1c(C)n(S(C)(=O)=O)c2ccc(N(C(=O)c3ccco3)S(C)(=O)=O)cc12", -0.47]
]}

---

molecular target: SARS-CoV-2 Main Protease (SARS-CoV-2); conditions: 50.0 µM

{"columns": ["molecule", "subject_of_test", "readout_unit", "inhibition"],
 "data": [
  ["CCCc1cc2c(cc1S(=O)(=O)N1CCN(c3ccccc3)CC1)OCO2", "SARS-CoV-2 Main Protease (SARS-CoV-2)", "%", -17.1],
  ["CCCN(C(=O)Cc1cccc(Cl)c1)c1cccnc1", "SARS-CoV-2 Main Protease (SARS-CoV-2)", "%", 3.25],
  ["N#Cc1ccc(CN2CCC(C3CCNC3)CC2)cc1 (stereo not given)", "SARS-CoV-2 Main Protease (SARS-CoV-2)", "%", 98.9],
  ["O=C(COc1ccccc1)NCCc1ccccc1", "SARS-CoV-2 Main Protease (SARS-CoV-2)", "%", -0.0738],
  ["C=CC(=O)N(c1ccc(C(C)(C)C)cc1)C(C(=O)NC1CCCCC1)c1cccnc1 (stereo not given)", "SARS-CoV-2 Main Protease (SARS-CoV-2)", "%", 17.8],
  ["CNS(=O)(=O)Cc1ccc2[nH]cc(CCN(C)C)c2c1", "SARS-CoV-2 Main Protease (SARS-CoV-2)", "%", 2.38],
  ["CCc1nnnn1-c1ccccc1NC(=O)C1(c2cncc(Br)c2)CC1", "SARS-CoV-2 Main Protease (SARS-CoV-2)", "%", 10.2],
  ["C=CC(=O)N(c1ccc(S(F)(F)(F)(F)F)cc1)C(C(=O)Nc1c(C)cccc1CC)c1cccnc1 (stereo not given)", "SARS-CoV-2 Main Protease (SARS-CoV-2)", "%", 7.07],
  ["Cc1ccncc1NC(=O)Cc1cccc(C(N)=O)c1", "SARS-CoV-2 Main Protease (SARS-CoV-2)", "%", -5.83],
  ["COc1cc(Cl)c(C)cc1NC(=O)Nc1cn(C)c(=O)c2ccccc12", "SARS-CoV-2 Main Protease (SARS-CoV-2)", "%", 5.81],
  ["C=CC(=O)N(c1ccc(S(F)(F)(F)(F)F)cc1)C(C(=O)Nc1ccc(OC)cc1C)c1cccnc1 (stereo not given)", "SARS-CoV-2 Main Protease (SARS-CoV-2)", "%", 12.2],
  ["C=CC(=O)N(C(C(=O)NC(C)(C)C)c1cccnc1)[C@@H]1C[C@@H]1c1ccccc1 (stereo in doubt)", "SARS-CoV-2 Main Protease (SARS-CoV-2)", "%", -6.46],
  ["COC(=O)c1sccc1NC(=O)Nc1cn(CC(C)C)c(=O)c2ccccc12", "SARS-CoV-2 Main Protease (SARS-CoV-2)", "%", -0.958],
  ["O=C1CC(Oc2cccc(C(=O)NCc3cncnc3)c2)N1 (stereo not given)", "SARS-CoV-2 Main Protease (SARS-CoV-2)", "%", 25.1],
  ["O=C(CCl)N1CCN(Cc2cc(O)ccc2O)CC1", "SARS-CoV-2 Main Protease (SARS-CoV-2)", "%", 74.5],
  ["COc1cccc(NC(=O)Nc2cccc(C#N)c2)c1", "SARS-CoV-2 Main Protease (SARS-CoV-2)", "%", 9.79],
  ["Cc1ccc(C)c(NC(=O)[C@H]2CNC(=O)C2)c1 (stereo in doubt)", "SARS-CoV-2 Main Protease (SARS-CoV-2)", "%", -9.38],
  ["C=CC(=O)N(c1ccc(N(C)C)c(C)c1)C(C(=O)Nc1cccc(CC)c1)c1cccnc1 (stereo not given)", "SARS-CoV-2 Main Protease (SARS-CoV-2)", "%", 11.7],
  ["C=CC(=O)N(C(CO)CC#CC)C(C(=O)NC(C)(C)C)c1cccnc1 (stereo not given)", "SARS-CoV-2 Main Protease (SARS-CoV-2)", "%", -4.3],
  ["CCC(CC)C(=O)C(C#N)C(=O)Nc1ccc(F)cc1 (stereo not given)", "SARS-CoV-2 Main Protease (SARS-CoV-2)", "%", -16.2],
  ["O=C(Cn1nnc2ccccc21)NCc1ccc(Oc2cccnc2)c(F)c1", "SARS-CoV-2 Main Protease (SARS-CoV-2)", "%", -19.3],
  ["Cc1nn(-c2ccccc2)c(Nc2cccc(C(F)(F)F)c2)c1NS(C)(=O)=O", "SARS-CoV-2 Main Protease (SARS-CoV-2)", "%", -5.82],
  ["Cc1cc(CC(=O)Nc2cnccc2C)[nH]n1", "SARS-CoV-2 Main Protease (SARS-CoV-2)", "%", 0.404],
  ["O=C(Cc1cccnc1Br)Nc1cccc(OCCn2cncn2)c1", "SARS-CoV-2 Main Protease (SARS-CoV-2)", "%", -21.7],
  ["O=C1CC[C@H](C(=O)Nc2cccc(Br)c2)N1 (stereo in doubt)", "SARS-CoV-2 Main Protease (SARS-CoV-2)", "%", 5.83],
  ["C=CC(=O)N(c1cc(C(C)(C)C)on1)C(C(=O)NCCc1cccc(F)c1)c1cccnc1 (stereo not given)", "SARS-CoV-2 Main Protease (SARS-CoV-2)", "%", 31.3],
  ["CCCCN(CCNC(=O)Nc1cn(C)c(=O)c2ccccc12)Cc1ccco1", "SARS-CoV-2 Main Protease (SARS-CoV-2)", "%", 12.5],
  ["O=C(C1CCN(c2ccncc2)CC1)N1CCS(=O)(=O)CC1", "SARS-CoV-2 Main Protease (SARS-CoV-2)", "%", -27.4],
  ["COc1cc(CNC(=O)Cc2ncc[nH]2)c2ccccc2n1", "SARS-CoV-2 Main Protease (SARS-CoV-2)", "%", -23.1],
  ["O=C(Cc1ccc2ccccc2c1)Nc1cc(C(F)(F)F)ccn1", "SARS-CoV-2 Main Protease (SARS-CoV-2)", "%", 3.43],
  ["O=C(Cc1cccc(Cl)c1)Nc1cccnc1", "SARS-CoV-2 Main Protease (SARS-CoV-2)", "%", 40.9],
  ["N#Cc1cncc(NC(=O)Nc2cccnc2)c1", "SARS-CoV-2 Main Protease (SARS-CoV-2)", "%", 17.1],
  ["Cc1ccncc1NC(=O)c1cccc(NC(=O)Nc2cccnc2)c1", "SARS-CoV-2 Main Protease (SARS-CoV-2)", "%", -23.3],
  ["CC(C)Cn1cc(NC(=O)Nc2nc3ccccc3s2)c2ccccc2c1=O", "SARS-CoV-2 Main Protease (SARS-CoV-2)", "%", 12.2],
  ["COc1ccccc1OCCN(C)C(=O)c1cc(=O)[nH]c2cc(F)ccc12", "SARS-CoV-2 Main Protease (SARS-CoV-2)", "%", 7.57],
  ["O=C(Cc1cccc(Cl)c1)Nn1cnnc1", "SARS-CoV-2 Main Protease (SARS-CoV-2)", "%", -21.6],
  ["COc1cccc(N2CCN(C(=O)c3cc(=O)[nH]c4ccccc34)CC2)c1", "SARS-CoV-2 Main Protease (SARS-CoV-2)", "%", 90.8],
  ["O=C(c1ccccc1)N1CCN(C(=O)C2CCOCC2)CC1", "SARS-CoV-2 Main Protease (SARS-CoV-2)", "%", 6.27],
  ["Cc1ccncc1NS(=O)(=O)Cc1cccc(Cl)c1", "SARS-CoV-2 Main Protease (SARS-CoV-2)", "%", 9.77],
  ["O=C(Nc1cnccc1CO)[C@@H]1COc2ccc(Cl)cc21 (stereo in doubt)", "SARS-CoV-2 Main Protease (SARS-CoV-2)", "%", 73.1],
  ["CC(=O)N1CCN(C(=O)Cc2ccccn2)CC1", "SARS-CoV-2 Main Protease (SARS-CoV-2)", "%", 3.52],
  ["CCN1CCN(Cc2ccccc2CNC(=O)[C@@]2(C)CCN2C(=O)OC(C)(C)C)CC1 (stereo in doubt)", "SARS-CoV-2 Main Protease (SARS-CoV-2)", "%", -0.697],
  ["O=C1CN(c2nnc(C3CCC(=O)N3)n2CCn2cc(Cl)cn2)CCN1 (stereo not given)", "SARS-CoV-2 Main Protease (SARS-CoV-2)", "%", -0.405],
  ["Cc1cc(C)nc(NC2CCN(C(=O)CCl)CC2)n1", "SARS-CoV-2 Main Protease (SARS-CoV-2)", "%", 81.5],
  ["Cc1cc(Cl)cc(CC2CCN(C(=O)CCl)CC2)c1", "SARS-CoV-2 Main Protease (SARS-CoV-2)", "%", 98.3]
]}
